These data points were gathered from paper PMC12030359.

- ASSAY: Log D measurement (1-octanol/PBS)
- Format: physicochemical
- DETAILS: 1-octanol/PBS (pH = 7.4), room temperature
OBSERVABLE: logD
No unit in the answer, only the number.

// logD lookup, key: Cn1c(=O)c(Oc2ccc([18F])cc2F)cc2cnc(NC3CCOCC3)nc21 [[^18F]R1487]
2.2
